- PROTOCOL NOTES: Volume of distribution at steady state in Wistar-Hannover rat at 2 mg/kg, iv by LC-MS/MS analysis
- Format: ADME, organism-based
- TEST PARAMETERS: in vivo, read-out: Vdss
RECORDED METRIC: Vd

Using known records, supply Vd for `Cc1ccc([C@H]2C[C@@H]2COc2cc(NCc3nnc(C)s3)nc(C)n2)nc1`
0.93 L/kg

* * *

- STUDY TARGET: cAMP and cAMP-inhibited cGMP 3',5'-cyclic phosphodiesterase 10A (Homo sapiens, UniProt Q9Y233)
- Sequence (Q9Y233 whole entry): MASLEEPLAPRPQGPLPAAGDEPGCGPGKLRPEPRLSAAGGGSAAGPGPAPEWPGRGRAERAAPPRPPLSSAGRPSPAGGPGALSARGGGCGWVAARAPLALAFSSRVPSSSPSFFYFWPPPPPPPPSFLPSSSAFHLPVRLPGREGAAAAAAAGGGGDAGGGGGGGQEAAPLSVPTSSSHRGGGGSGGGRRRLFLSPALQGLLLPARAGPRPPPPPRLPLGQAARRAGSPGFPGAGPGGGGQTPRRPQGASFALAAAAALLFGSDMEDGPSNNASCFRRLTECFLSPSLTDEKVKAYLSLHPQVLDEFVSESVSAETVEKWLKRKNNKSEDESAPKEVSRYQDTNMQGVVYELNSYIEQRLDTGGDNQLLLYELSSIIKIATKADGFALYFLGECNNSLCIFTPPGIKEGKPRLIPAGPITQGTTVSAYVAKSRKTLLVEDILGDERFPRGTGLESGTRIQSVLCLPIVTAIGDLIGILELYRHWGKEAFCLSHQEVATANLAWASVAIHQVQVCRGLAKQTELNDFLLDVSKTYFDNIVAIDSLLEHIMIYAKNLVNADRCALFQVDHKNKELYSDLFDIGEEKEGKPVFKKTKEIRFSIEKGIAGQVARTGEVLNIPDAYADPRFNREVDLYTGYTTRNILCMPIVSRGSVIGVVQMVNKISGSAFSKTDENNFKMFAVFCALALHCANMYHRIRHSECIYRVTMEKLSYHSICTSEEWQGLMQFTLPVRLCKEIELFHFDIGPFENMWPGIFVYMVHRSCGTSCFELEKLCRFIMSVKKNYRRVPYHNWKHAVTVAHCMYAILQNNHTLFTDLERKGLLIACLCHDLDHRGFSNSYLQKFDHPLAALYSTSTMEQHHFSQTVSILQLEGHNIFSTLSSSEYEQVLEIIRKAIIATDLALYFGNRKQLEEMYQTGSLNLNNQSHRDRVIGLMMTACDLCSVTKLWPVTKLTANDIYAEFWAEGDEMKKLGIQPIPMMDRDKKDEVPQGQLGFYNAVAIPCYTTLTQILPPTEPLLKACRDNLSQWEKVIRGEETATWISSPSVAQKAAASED
- PROTOCOL NOTES: Inhibition of human PDE10A2 transfected in human AD293 cells cytosolic fraction using cAMP as substrate by fluorescence polarization assay
RECORDED METRIC: pKi
pKi here: minus log base 10 of the concentration, concentration in moles per litre.

Past entries and their recorded results:
In [3]: df
Out[3]:
                        structure_as_smiles  measurement
0  Cc1c(Cl)cc(OC[C@H]2C[C@@H]2c2ccccn2)nc1NCc1cnn(C)c1         8.49
1  Cn1cc(CNc2cc(OC[C@H]3C[C@@H]3c3ccccn3)nc3ncccc23)cn1         8.07
2  Cc1ccc([C@H]2C[C@@H]2COc2cc(NCc3cnn(C)c3)nc(C)n2)nc1        10.21
3  Cc1c(NCc2cnn(C)c2)cc(OC[C@H]2C[C@@H]2c2ccccn2)nc1Cl        10.33
4  COc1ccc([C@H]2C[C@@H]2COc2cc(NCc3cnn(C)c3)nc(C)n2)nc1        10.27

Consider the molecule `COc1ccc([C@H]2C[C@@H]2COc2cc(NCc3nnc(C)s3)nc(C)n2)nc1` . State its measured pKi.
10.42

Return pKi for the following molecule: `Cc1nc(NCc2cnn(C)c2)cc(OC[C@H]2C[C@@H]2c2ccccn2)n1`
9.22

Answer with the recorded pKi for the molecule listed here: `Cn1cc(CNc2cc(OC[C@H]3C[C@@H]3c3ccccn3)nc3cccnc23)cn1`
9.06

For the molecule `Cn1cc(CNc2cc(OC[C@H]3C[C@@H]3c3ccccn3)nc3ccccc23)cn1` , give its measured pKi value.
9.31

* * *

- STUDY TARGET: cAMP and cAMP-inhibited cGMP 3',5'-cyclic phosphodiesterase 10A (Homo sapiens)
- PROTOCOL NOTES: Inhibition of human recombinant full length PDE10A
RECORDED METRIC: pIC50
Scale note: pIC50 = -log10(concentration in M).

Input `Cc1ccc([C@H]2C[C@@H]2COc2cc(NCc3nnc(C)s3)nc(C)n2)nc1` , output reported pIC50.
8.80

* * *

- STUDY TARGET: cAMP and cAMP-inhibited cGMP 3',5'-cyclic phosphodiesterase 10A (Homo sapiens)
- PROTOCOL NOTES: Inhibition of human PDE10A2 transfected in human AD293 cells cytosolic fraction using cAMP as substrate by fluorescence polarization assay
pKi: −log10 of the molar value.
Would you mind labelling by pKi? At or over 10 is criterion met, under is criterion not met.

In [3]: df
Out[3]:
                                   molecule                              study_target    label_value
0  Cc1ccc([C@H]2C[C@@H]2COc2cc(NCc3nnc(C)s3)nc(C)n2)nc1 [MK-8189]  cAMP and cAMP-inhibited cGMP 3',5'-cyclic phosphodiesterase 10A (Homo sapiens)  criterion met

Now, please, on to the next molecule.
Could you please find out whether `Cc1nc(NCc2nnc(C)s2)cc(OC[C@H]2C[C@@H]2c2ccccn2)n1` has pKi that meets 10 or exceeds it?
criterion not met
